Assay: Solubility of crystalline form (saturated solutions measured by HPLC)
Type: physicochemical
Details: thermodynamic from solid; FaSSIF, 24 hr
metric name: solubility at 24 h (µg/mL)
Record the value in µg/mL, omitting the unit from your answer.

Task: What value of measured solubility at 24 h is listed for Cn1cc(Nc2nccc(N3C[C@H]4CC[C@@H](C3)N4C(=O)[C@@H]3CC3(F)F)n2)cn1 [tosylate Form A] ?
Result: 7540

###

Test: Solubility of crystalline form (saturated solutions measured by HPLC)
Type: physicochemical
Settings: thermodynamic from solid; FaSSIF, 1 hr
metric name: solubility at 1 h

Task: What value of measured solubility at 1 h is listed for Cn1cc(Nc2nccc(N3C[C@H]4CC[C@@H](C3)N4C(=O)[C@@H]3CC3(F)F)n2)cn1 [tosylate Form A] ?
Result: 7120 µg/mL

###

Experiment: Solubility of crystalline form (saturated solutions measured by HPLC)
Type: physicochemical
Conditions: thermodynamic from solid; FeSSIF, 4 hr
metric name: solubility at 4 h (µg/mL)
Record the value in µg/mL, omitting the unit from your answer.

Task: What value of measured solubility at 4 h is listed for Cn1cc(Nc2nccc(N3C[C@H]4CC[C@@H](C3)N4C(=O)[C@@H]3CC3(F)F)n2)cn1 [tosylate Form A] ?
Result: 7340

###

Assay: Solubility of crystalline form (saturated solutions measured by HPLC)
Assay type: physicochemical
Conditions: simulated gastric fluid, thermodynamic from solid; SGF, 24 hr
metric name: solubility at 24 h (µg/mL)
Record the value in µg/mL, omitting the unit from your answer.

Task: What value of measured solubility at 24 h is listed for Cn1cc(Nc2nccc(N3C[C@H]4CC[C@@H](C3)N4C(=O)[C@@H]3CC3(F)F)n2)cn1 [tosylate Form A] ?
Result: 5690

###

Experiment: Solubility of crystalline form (saturated solutions measured by HPLC)
Type: physicochemical
Conditions: simulated gastric fluid, thermodynamic from solid; SGF, 2 hr
metric name: solubility at 2 h (µg/mL)
Record the value in µg/mL, omitting the unit from your answer.

Task: What value of measured solubility at 2 h is listed for Cn1cc(Nc2nccc(N3C[C@H]4CC[C@@H](C3)N4C(=O)[C@@H]3CC3(F)F)n2)cn1 [tosylate Form A] ?
Result: 5990

###

Assay: Solubility of crystalline form (saturated solutions measured by HPLC)
Assay type: physicochemical
Details: water, thermodynamic from solid; H2O, 4 hr
metric name: solubility at 4 h (µg/mL)
Record the value in µg/mL, omitting the unit from your answer.

Task: What value of measured solubility at 4 h is listed for Cn1cc(Nc2nccc(N3C[C@H]4CC[C@@H](C3)N4C(=O)[C@@H]3CC3(F)F)n2)cn1 [tosylate Form A] ?
Result: 5240

###

Experiment: Solubility of crystalline form (saturated solutions measured by HPLC)
Format: physicochemical
Details: water, thermodynamic from solid; H2O, 1 hr
metric name: solubility at 1 h (µg/mL)
Record the value in µg/mL, omitting the unit from your answer.

Task: What value of measured solubility at 1 h is listed for Cn1cc(Nc2nccc(N3C[C@H]4CC[C@@H](C3)N4C(=O)[C@@H]3CC3(F)F)n2)cn1 [tosylate Form A] ?
Result: 5260

###

Assay: Solubility of crystalline form (saturated solutions measured by HPLC)
Type: physicochemical
Settings: thermodynamic from solid; FaSSIF, 4 hr
metric name: solubility at 4 h (µg/mL)
Record the value in µg/mL, omitting the unit from your answer.

Task: What value of measured solubility at 4 h is listed for Cn1cc(Nc2nccc(N3C[C@H]4CC[C@@H](C3)N4C(=O)[C@@H]3CC3(F)F)n2)cn1 [tosylate Form A] ?
Result: 7300

###

Test: Solubility of crystalline form (saturated solutions measured by HPLC)
Format: physicochemical
Details: simulated gastric fluid, thermodynamic from solid; SGF, 1 hr
metric name: solubility at 1 h (µg/mL)
Record the value in µg/mL, omitting the unit from your answer.

Task: What value of measured solubility at 1 h is listed for Cn1cc(Nc2nccc(N3C[C@H]4CC[C@@H](C3)N4C(=O)[C@@H]3CC3(F)F)n2)cn1 [tosylate Form A] ?
Result: 5540

###

Test: Solubility of crystalline form (saturated solutions measured by HPLC)
Type: physicochemical
Settings: thermodynamic from solid; FaSSIF, 2 hr
metric name: solubility at 2 h
Remember to follow the number with its unit.

Task: What value of measured solubility at 2 h is listed for Cn1cc(Nc2nccc(N3C[C@H]4CC[C@@H](C3)N4C(=O)[C@@H]3CC3(F)F)n2)cn1 [tosylate Form A] ?
Result: 7310 µg/mL

###

Test: Solubility of crystalline form (saturated solutions measured by HPLC)
Assay type: physicochemical
Settings: thermodynamic from solid; FeSSIF, 24 hr
metric name: solubility at 24 h
Remember to follow the number with its unit.

Task: What value of measured solubility at 24 h is listed for Cn1cc(Nc2nccc(N3C[C@H]4CC[C@@H](C3)N4C(=O)[C@@H]3CC3(F)F)n2)cn1 [tosylate Form A] ?
Result: 7780 µg/mL
